# credit: ChEMBL document CHEMBL3865819

Overview of recorded inhibition for various compounds
Target: Kir3.1/Kir3.4 (Homo sapiens) (UniProt P48549+P48544)
Experiment: Inhibition of GTPgammaS-induced activation of GIRK1/4 (unknown origin) expressed in HEK293 cells assessed as decrease in channel current at 10 uM after 2 mins at -40 mV holding potential by automated patch-clamp electrophysiology assay
Type: cell-based
Lab book: enter the figure in %, no units written.

Worked cases, inhibition given:
CC(=O)OC1O[C@@]2(C)[C@H](OC(=O)c3ccccc3)[C@@]3(OC(C)=O)C[C@H](C)[C@H](OC(=O)C(C)C)[C@@H]3[C@@H](OC(C)=O)[C@@]13[C@H](OC(=O)c1cccnc1)C[C@H]1[C@@H]([C@@H]23)C1(C)C (stereo not given in full) : 37
CC(=O)O[C@@H]1C[C@H]2[C@@H]([C@@H]3[C@]1(COC(=O)c1cccnc1)[C@H](OC(=O)c1ccccc1)[C@H]1[C@@H](OC(=O)C(C)C)[C@@H](C)C[C@]1(O)C(=O)[C@@]3(C)OC(C)=O)C2(C)C : 48
CC(=O)O[C@@H]1[C@H]2[C@@H](OC(=O)c3ccccc3)[C@@H](C)C[C@]2(OC(C)=O)[C@@H](OC(C)=O)[C@]2(C)OC[C@]13C(=O)C=C[C@H](C(C)(C)OC(C)=O)[C@@H]23 : 83
CCCCCC(=O)O[C@@H]1[C@@H]2[C@@H](O)[C@]34CC[C@H]5[C@@H]([C@H]3[C@@](C)(OC4)[C@H](OC(C)=O)[C@@]2(O)C[C@@H]1C)C5(C)C : 69

Given item CCC(C)C(=O)O[C@H]1C(=O)[C@@]23CO[C@@](C)([C@H](OC(C)=O)[C@@]4(OC(C)=O)C[C@](C)(OC(=O)c5cccnc5)[C@H](OC(=O)C(C)C)[C@@H]4[C@H]2OC(C)=O)[C@@H]3[C@@H]2[C@H]1C[C@]2(C)OC(C)=O (stereo not given in full) , the value recorded as its inhibition is 69

###

Target: Kir3.1/Kir3.4 (Homo sapiens) (UniProt P48549+P48544)
Experiment: Inhibition of GTPgammaS-induced activation of GIRK1/4 (unknown origin) expressed in HEK293 cells assessed as decrease in channel current at 10 uM after 2 mins at -40 mV holding potential by automated patch-clamp electrophysiology assay
Type: cell-based
Measurement label: inhibition (%)
Lab book: enter the figure in %, no units written.

Worked cases, inhibition given:
CC(=O)O[C@@H]1C=C[C@H]2[C@@H]3[C@]1(COC(=O)C(C)C)[C@H](OC(=O)c1ccccc1)[C@H]1[C@@H](OC(=O)C(C)C)[C@@H](C)C[C@]1(O)C(=O)[C@@]3(C)OC2(C)C : 54
CCC(=O)O[C@@H]1[C@@H]2[C@@H](OC(C)=O)[C@@]34CO[C@@](C)([C@H](OC(C)=O)[C@@]2(OC(C)=O)C[C@]1(C)OC(=O)c1cccnc1)[C@@H]3[C@@H]1[C@@H](C[C@]1(C)OC(C)=O)[C@@H](OC(=O)C(C)C)C4=O : 65
CCC(=O)O[C@@H]1[C@@H]2[C@@H](OC(C)=O)[C@@]34CO[C@@](C)([C@H](OC(C)=O)[C@@]2(O)C[C@@H]1C)[C@@H]3[C@@H]1[C@@H](C[C@]1(C)OC(C)=O)[C@@H](OC(=O)c1ccccc1)C4=O : 54

Proceed to the following item.
Given item CCC(C)C(=O)O[C@H]1C(=O)[C@@]23CO[C@@](C)([C@H](OC(C)=O)[C@@]4(OC(C)=O)C[C@](C)(OC(=O)c5ccccc5)[C@H](OC(=O)C(C)C)[C@@H]4[C@H]2OC(C)=O)[C@@H]3[C@@H]2[C@H]1C[C@]2(C)OC(C)=O (some centres undefined) , the value recorded as its inhibition is 70

###

Overview of recorded inhibition at 0.05 h, 30 µM for various compounds
Molecular target: hERG (KCNH2) (Homo sapiens)
Sequence (Q12809 whole entry): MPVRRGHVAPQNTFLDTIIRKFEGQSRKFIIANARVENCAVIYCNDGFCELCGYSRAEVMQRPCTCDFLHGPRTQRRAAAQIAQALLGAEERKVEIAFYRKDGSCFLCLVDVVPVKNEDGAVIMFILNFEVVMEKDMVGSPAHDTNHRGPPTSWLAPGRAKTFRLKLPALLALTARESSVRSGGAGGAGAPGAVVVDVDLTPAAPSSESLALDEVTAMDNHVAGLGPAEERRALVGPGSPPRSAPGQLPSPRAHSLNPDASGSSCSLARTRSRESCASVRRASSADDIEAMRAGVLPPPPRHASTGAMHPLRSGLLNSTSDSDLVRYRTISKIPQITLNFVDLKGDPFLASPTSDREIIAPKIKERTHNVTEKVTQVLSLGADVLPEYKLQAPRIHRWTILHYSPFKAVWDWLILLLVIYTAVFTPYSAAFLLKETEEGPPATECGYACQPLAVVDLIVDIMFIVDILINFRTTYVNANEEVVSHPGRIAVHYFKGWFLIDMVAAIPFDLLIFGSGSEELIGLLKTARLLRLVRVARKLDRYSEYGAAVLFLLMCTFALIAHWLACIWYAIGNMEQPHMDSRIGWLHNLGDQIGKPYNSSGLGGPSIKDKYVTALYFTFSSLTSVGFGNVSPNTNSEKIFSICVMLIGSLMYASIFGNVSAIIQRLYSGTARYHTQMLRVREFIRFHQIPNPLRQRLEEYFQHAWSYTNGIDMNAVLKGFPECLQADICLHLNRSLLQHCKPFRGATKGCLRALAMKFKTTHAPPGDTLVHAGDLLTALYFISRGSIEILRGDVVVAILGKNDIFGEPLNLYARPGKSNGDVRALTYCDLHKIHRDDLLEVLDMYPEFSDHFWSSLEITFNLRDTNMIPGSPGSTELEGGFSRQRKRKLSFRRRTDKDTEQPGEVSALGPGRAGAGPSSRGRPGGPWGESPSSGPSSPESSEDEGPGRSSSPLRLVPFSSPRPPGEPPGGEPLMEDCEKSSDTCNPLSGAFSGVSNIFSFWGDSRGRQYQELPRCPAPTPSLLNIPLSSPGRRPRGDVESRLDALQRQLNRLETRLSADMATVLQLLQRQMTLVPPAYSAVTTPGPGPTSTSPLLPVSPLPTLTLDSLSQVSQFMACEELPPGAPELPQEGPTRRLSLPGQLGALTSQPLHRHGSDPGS
Experiment: Inhibition of human ERG expressed in HEK293 cells assessed as decrease in channel current at 30 uM after 3 mins at -80 mV holding potential by automated patch-clamp electrophysiology assay
Format: cell-based
Conditions: HEK293 cells that express hERG
Write the quantity with the unit trailing the number.

CC(=O)O[C@@H]1C=C[C@H]2[C@@H]3[C@]1(COC(=O)C(C)C)[C@H](OC(=O)c1ccccc1)[C@H]1[C@@H](OC(=O)C(C)C)[C@@H](C)C[C@]1(O)C(=O)[C@@]3(C)OC2(C)C : 46%

# CC(=O)O[C@@H]1C[C@H]2[C@@H]([C@@H]3[C@]1(COC(=O)c1cccnc1)[C@H](OC(=O)c1ccccc1)[C@H]1[C@@H](OC(=O)C(C)C)[C@@H](C)C[C@]1(O)C(=O)[C@@]3(C)OC(C)=O)C2(C)C with hERG (KCNH2) (Homo sapiens): inhibition at 0.05 h, 30 µM is 53%

# CCC(=O)O[C@@H]1[C@@H]2[C@@H](OC(=O)c3ccccc3)[C@@]3(COC(=O)C(C)C)[C@H]4[C@H](C=C[C@H]3OC(C)=O)C(C)(C)O[C@]4(C)C(=O)[C@@]2(OC(C)=O)C[C@@H]1C with hERG (KCNH2) (Homo sapiens): inhibition at 0.05 h, 30 µM is 40%

# CC(=O)OC1O[C@@]2(C)[C@H](OC(=O)c3ccccc3)[C@@]3(OC(C)=O)C[C@H](C)[C@H](OC(=O)C(C)C)[C@@H]3[C@@H](OC(C)=O)[C@@]13[C@H](OC(=O)c1cccnc1)C[C@H]1[C@@H]([C@@H]23)C1(C)C (some centres undefined) with hERG (KCNH2) (Homo sapiens): inhibition at 0.05 h, 30 µM is 78%

###

Overview of recorded inhibition at 0.05 h, 10 µM for various molecules
Target: UniProtKB Q12809
Experiment: Inhibition of human ERG expressed in HEK293 cells assessed as decrease in channel current at 10 uM after 3 mins at -80 mV holding potential by automated patch-clamp electrophysiology assay
Assay type: cell-based
Details: HEK293 cells that express hERG
Lab book: enter the figure in %, no units written.

Worked cases, inhibition at 0.05 h, 10 µM given:
CC(=O)O[C@@H]1[C@H]2[C@@H](OC(=O)C(C)C)[C@@](C)(OC(=O)c3cccnc3)C[C@]2(OC(C)=O)[C@@H](OC(C)=O)[C@]2(C)OC[C@]13C(=O)[C@H](OC(=O)C(C)C)[C@@H]1C[C@](C)(OC(C)=O)[C@@H]1[C@@H]23 : 19
CC(=O)O[C@@H]1C=C[C@H]2[C@@H]3[C@]1(COC(=O)C(C)C)[C@H](OC(=O)c1ccccc1)[C@H]1[C@@H](OC(=O)C(C)C)[C@@H](C)C[C@]1(O)C(=O)[C@@]3(C)OC2(C)C : 33
CCC(C)C(=O)O[C@H]1C(=O)[C@@]23CO[C@@](C)([C@H](OC(C)=O)[C@@]4(OC(C)=O)C[C@](C)(OC(=O)c5cccnc5)[C@H](OC(=O)C(C)C)[C@@H]4[C@H]2OC(C)=O)[C@@H]3[C@@H]2[C@H]1C[C@]2(C)OC(C)=O (stereo partly drawn) : 54
CCC(C)C(=O)O[C@H]1C(=O)[C@@]23CO[C@@](C)([C@H](OC(C)=O)[C@@]4(OC(C)=O)C[C@](C)(O)[C@H](OC(=O)C(C)C)[C@@H]4[C@H]2OC(C)=O)[C@@H]3[C@@H]2[C@H]1C[C@]2(C)OC(C)=O (stereo partly drawn) : 22
CCCCCC(=O)O[C@@H]1[C@@H]2[C@@H](O)[C@]34CC[C@H]5[C@@H]([C@H]3[C@@](C)(OC4)[C@H](OC(C)=O)[C@@]2(O)C[C@@H]1C)C5(C)C : 40
CCC(=O)O[C@@H]1[C@@H]2[C@@H](OC(=O)c3ccccc3)[C@@]3(COC(=O)C(C)C)[C@H]4[C@H](C=C[C@H]3OC(C)=O)C(C)(C)O[C@]4(C)C(=O)[C@@]2(OC(C)=O)C[C@@H]1C : 24
CC(=O)O[C@@H]1[C@H]2[C@@H](OC(=O)C(C)C)[C@@H](C)C[C@]2(OC(C)=O)[C@@H](OC(C)=O)[C@]2(C)OC[C@]13C(=O)C=C[C@H](C(C)(C)OC(C)=O)[C@@H]23 : 4
CCC(C)C(=O)O[C@H]1C(=O)[C@@]23CO[C@@](C)([C@H](OC(C)=O)[C@@]4(OC(C)=O)C[C@H](C)[C@H](OC(=O)c5cccnc5)[C@@H]4[C@H]2OC(C)=O)[C@@H]3[C@@H]2[C@H]1C[C@]2(C)OC(C)=O (stereo partly drawn) : 14

Proceed to the following item.
Given item CC(=O)O[C@@H]1[C@H]2[C@@H](OC(=O)C(C)C)[C@@H](C)C[C@]2(OC(C)=O)[C@@H](OC(C)=O)[C@]2(C)OC[C@]13C(=O)[C@H](OC(C)=O)[C@@H]1C[C@](C)(OC(C)=O)[C@@H]1[C@@H]23 , the value recorded as its inhibition at 0.05 h, 10 µM is 16
